Recorded measurements of growth inhibition, one per entry
# experimentNotes: NCI Yeast Anticancer Drug Screen. Data for the cln2 rad14 strain (AID 165);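 also: 0% = growth equal to vehicle treated cultures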
# runParameters: S. cerevisiae cln2 rad14 strain, hits give high values; at 50.0 µM unless noted
This is part of a sample that, as a whole, favours compounds with a hit. Of some 79,000 tested, about 15% had one in any assay. The source made the active and inactive calls. Rule as the data show it: active = growth inhibition above about 70%; inactive = the rest.

See these solved cases before continuing.
| compound | result |
| --- | --- |
| Cc1cc(=O)oc2c(C)c(OCCCOc3ccc4c(C)cc(=O)oc4c3C)ccc12 | 11.1% (inactive) |
| O=C(NCCCl)NC1C(O)OC(CO)C(O)C1O (centres undefined) | 76.5% (active) |
| CC1C(=O)C(c2cccs2)(C2CCCCC2)CC[N+]1(C)C (centres undefined) | -19.1% (inactive) |
| CC(C)c1ccc(/C(C(=O)O)=C(\O)C(=O)O)cc1 | 29.9% (inactive) |
| O=c1cc(Cl)c(=O)n(-c2ccccc2)[nH]1 | -14.6% (inactive) |

Prompt: For the compound COc1ccc(COC(=O)Nc2ccc(Br)cc2)c(OC)c1 , report growth inhibition.
Completion: -16.6% (inactive)

Prompt: For the compound [CH3][Sn]([CH3])([S]P(=S)(c1ccccc1)c1ccccc1)[S]P(=S)(c1ccccc1)c1ccccc1 , report growth inhibition.
Completion: -15.8% (inactive)

Prompt: For the compound Nc1nc(=O)[nH]c(=O)[nH]1 , report growth inhibition.
Completion: -28.9% (inactive)

Prompt: For the compound CC(Oc1c(Cl)cc(Cl)cc1Cl)C(=O)O (centres undefined) , report growth inhibition.
Completion: 12.8% (inactive)

Prompt: For the compound CCOC(=O)/C(Cc1cc[n+]([O-])cc1)=N/O , report growth inhibition.
Completion: 13.5% (inactive)

Prompt: For the compound C=C1C(=O)OC2C3[C@@]4(C)O[C@H]4[C@H]4O[C@@]34[C@](C)(O)CC(OC(C)=O)[C@@H]12 (some centres undefined) , report growth inhibition.
Completion: -7.45% (inactive)

Prompt: For the compound OC(COc1cccc(C(F)(F)F)c1)CN1CCN(c2cccc(F)c2)CC1 (centres undefined) , report growth inhibition.
Completion: 97.9% (active)

Prompt: For the compound C1CSCCSS[C@@H]2CCCCC2SC1 (some centres undefined) , report growth inhibition.
Completion: -11.9% (inactive)

Prompt: For the compound O=C(O)CCC(CC(=O)O)C(=O)O (centres undefined) , report growth inhibition.
Completion: 13.7% (inactive)
